The origin of these recorded values is paper PMC6222451.

For each record, write down the corresponding inhibition at 250 µg/mL.
Target: Saccharomyces cerevisiae (yeast) α-glucosidase (Saccharomyces cerevisiae)
Construct: purchased Sigma Chemical Co., St. Louis City, MO, USA
Assay: α-Glucosidase inhibitory activity determination (pNPG substrate)
Format: biochemical
Settings: read-out: Maximum Inhibition (%), recorded at 250 μg/mL

Report inhibition at 250 µg/mL for every entry below.
1. COc1cc(O[C@@H]2O[C@H](CO)[C@@H](O)[C@H](O)[C@H]2O)cc(OC)c1O [Compound 9]
2. CC(C)=CC(=O)O[C@@H]1[C@H](O)[C@H](O)[C@@H](O)[C@H](O)[C@H]1O [Compound 12, 1-O-(3-methyl)-butenoyl-myo-inositol]
3. Oc1cc(O)c2c(c1)O[C@@H](c1cc(O)c(O)c(O)c1)[C@H](O)C2 [Compound 10, (−)-Gallocatechin]

A:
1. ≤ 38%
2. 96%
3. 93%

###

For each record, write down the corresponding IC50.
Target: Saccharomyces cerevisiae (yeast) α-glucosidase (Saccharomyces cerevisiae, UniProt P53341)
Construct: purchased Sigma Chemical Co., St. Louis City, MO, USA
Sequence (P53341 whole entry): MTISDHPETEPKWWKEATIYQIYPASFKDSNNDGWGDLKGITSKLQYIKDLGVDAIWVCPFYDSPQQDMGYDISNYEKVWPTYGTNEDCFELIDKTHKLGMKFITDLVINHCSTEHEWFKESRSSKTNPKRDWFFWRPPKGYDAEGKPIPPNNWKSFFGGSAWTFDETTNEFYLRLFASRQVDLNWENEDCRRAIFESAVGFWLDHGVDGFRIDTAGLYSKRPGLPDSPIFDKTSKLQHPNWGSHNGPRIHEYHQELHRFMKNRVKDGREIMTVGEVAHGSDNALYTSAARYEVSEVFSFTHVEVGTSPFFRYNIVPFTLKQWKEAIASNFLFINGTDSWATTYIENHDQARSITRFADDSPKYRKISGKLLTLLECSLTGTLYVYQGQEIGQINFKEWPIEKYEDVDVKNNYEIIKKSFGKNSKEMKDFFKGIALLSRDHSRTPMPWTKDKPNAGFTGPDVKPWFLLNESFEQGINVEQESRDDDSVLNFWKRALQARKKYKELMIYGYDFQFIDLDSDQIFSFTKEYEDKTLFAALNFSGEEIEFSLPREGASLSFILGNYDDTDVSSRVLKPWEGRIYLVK
Experiment: α-Glucosidase inhibitory activity determination (pNPG substrate)
Type: biochemical
Include the unit after the number when you answer.

[[record]]
compound = "O=C(c1ccc(O)cc1)C(O)CO[C@@H]1O[C@H](CO)[C@@H](O)[C@H](O)[C@H]1O (stereo partly drawn) [Compound 11, Schweinfurthinol 9-O-β-D-pyranoglucoside]"
assay_metric = "IC50"
val = "91.8 µM"


Below: the item to evaluate.
Q: Quick check: IC50 of CC1=CC(=O)OCC1O[C@@H]1O[C@H](CO)[C@@H](O)[C@H](O)[C@H]1O (stereo partly drawn) [Compound 1, Walterolactone A/B β-D-pyranoglucoside] ?
A: 3.12 µM

###

Target: Saccharomyces cerevisiae (yeast) α-glucosidase (Saccharomyces cerevisiae)
Construct: purchased Sigma Chemical Co., St. Louis City, MO, USA
Assay: α-Glucosidase inhibitory activity determination (pNPG substrate)
Type: biochemical
Settings: read-out: Maximum Inhibition (%), recorded at 250 μg/mL
assay metric: inhibition at 250 µg/mL

Examples from the recorded data:
[[record]]
molecule = "Oc1cc(O)c2c(c1)O[C@@H](c1ccc(O)c(O)c1)[C@H](O)C2 [Compound 23, (−)-Catechin]"
assay_metric = "inhibition at 250 µg/mL"
val = "≤ 38%"

[[record]]
molecule = "O=C(c1ccc(O)cc1)C(O)CO[C@@H]1O[C@H](CO)[C@@H](O)[C@H](O)[C@H]1O (stereo partly drawn) [Compound 11, Schweinfurthinol 9-O-β-D-pyranoglucoside]"
assay_metric = "inhibition at 250 µg/mL"
val = "87%"


Q: Quick check: inhibition at 250 µg/mL of COC(=O)c1cc(O)c(O)c(O)c1 [Compound 20, Methyl galloate] ?
A: 58%
